Measurement kind: melting point

## Task I'd like to know its melting point. The molecule in question is `COc1ccc2c(c1)OCCN2c1nc(Cl)nc2ccccc12`
## Result 173 to 174 °C

## Task I'd like to know its melting point. The molecule in question is `Cc1ccc2c(c1)CCCN2c1nc(C)nc2ccccc12`
## Result 136 to 138 °C

## Task I'd like to know its melting point. The molecule in question is CCOC1CCN(c2nc(Cl)nc3ccccc23)c2ccc(OC)cc21 (stereo not shown)
## Result 70 to 72 °C

## Task I'd like to know its melting point. The molecule in question is `COc1ccc2c(c1)CCCN2c1cc(Br)cc(C(=O)O)c1`
## Result 175 to 177 °C

## Task I'd like to know its melting point. The molecule in question is `COc1ccc2c(c1)C(=O)CCN2c1nc(Cl)nc2ccccc12`
## Result 218 to 220 °C

## Task I'd like to know its melting point. The molecule in question is `COc1ccc2c(c1)CCCN(c1nc(C)nc3ccccc13)C2`
## Result 125 to 127 °C

## Task I'd like to know its melting point. The molecule in question is `COc1ccc2c(c1)CCCN2c1cc(Cl)nc(N)n1`
## Result 179 to 181 °C

## Task I'd like to know its melting point. The molecule in question is `COc1cc2c(cc1F)N(c1nc(C)nc3ccccc13)CCO2`
## Result 192 to 194 °C

## Task I'd like to know its melting point. The molecule in question is `COc1ccc2c(c1)CCN2c1nc(C)nc2ccccc12`
## Result 116 to 117 °C

## Task I'd like to know its melting point. The molecule in question is `COc1ccc2c(c1)CCCCN2c1nc(Cl)nc2ccccc12`
## Result 102 to 103 °C

----------
Kindly supply the reported GI50 values for the records listed here.
State just the number; it will be interpreted in µg/mL.

## Task What is its GI50 for DU145 prostate cancer cells? Entry: `COc1ccc2c(c1)NC(=O)CN2c1nc(C)nc2ccccc12`
## Result 0.0007

## Task What is its GI50 for DU145 prostate cancer cells? Entry: `COc1ccc2c(c1)CCCN2c1cc(Cl)nc(N)n1`
## Result 0.06

## Task What is its GI50 for DU145 prostate cancer cells? Entry: `COc1ccc2c(c1)CCCN2c1cc(C)nc2ccccc12`
## Result 0.0115

## Task What is its GI50 for DU145 prostate cancer cells? Entry: `CNC(=O)c1cc(Br)cc(N2CCCc3cc(OC)ccc32)c1`
## Result 0.209

## Task What is its GI50 for DU145 prostate cancer cells? Entry: `COc1ccc2c(c1)CCCN2c1cc(Br)cc(C(=O)NC2CC2)c1`
## Result 0.062

## Task What is its GI50 for DU145 prostate cancer cells? Entry: `Cc1nc(N2CCCc3cc(Br)ccc32)c2ccccc2n1`
## Result 0.06

## Task What is its GI50 for DU145 prostate cancer cells? Entry: `COc1ccc2c(c1)CCCN2c1nc(NCCCO)nc2ccccc12`
## Result 0.0073

## Task What is its GI50 for DU145 prostate cancer cells? Entry: `COc1ccc2c(c1)CCCN2c1nc(Cl)nc2ccccc12`
## Result 0.0005

## Task What is its GI50 for DU145 prostate cancer cells? Entry: `COc1ccc2c(c1)CCCN2c1nc(NC2CCCC2)nc2ccccc12`
## Result 0.483
